Tested on: CAKI-1 renal
testSummary: NCI-60 one-dose screen, 48 h (100 = growth as untreated, 0 = no growth, -100 = all killed)
measurementConditions: 10 µM unless noted
The panel holds about 83,000 compounds, 20% with a hit somewhere; the sample as a whole holds those more often.
Output Yes for records whose growth is lower than 90%, No for records at or above 90%.

C/C=C/c1cc2c(c(=O)o1)C(=O)[C@@H](O)[C@H](C)O2; Yes
CCOc1ccc(C(C[N+](=O)[O-])Sc2ccccc2N)cc1 (stereo not drawn); Yes
NC(=S)N/N=C\c1nccc2c(N)cccc12; Yes
CN(C)c1ccc(/C=C/c2ccnc3ccccc23)cc1; Yes
COc1cc(NCc2ccc3nc(N)nc(N)c3c2C)cc(OC)c1OC (tested in a mixture with another compound); Yes
O=C1C=Cc2ccccc2/C1=C/c1nc(-c2ccccc2)oc1O; Yes

Lab note: confirm whether the reported growth for this molecule is below 90%, equality not counting. molecule: Cc1cc(C(N)=O)cc(C)c1C(=O)OCCCl
No

Identify whether the molecule CCCCCCCCCCCCCCCCCC[S+](C)CC (stereo not drawn) records growth below 90%.
Yes

I'd appreciate it if you could check whether CC(/C=N/NC(N)=S)Cc1ccc(C(C)C)cc1 (stereo not drawn) has growth smaller than 90%.
Yes

Is it true that growth reported for CCOc1ccc(Nc2nc3c(s2)C(=O)c2ccccc2C3=O)cc1 is less than 90%?
Yes

Given the entry O/N=C1\c2ccccc2-c2ccc(F)cc21 , would its reported growth be below 90%?
No

Is growth strictly under 90% for the entry c1ccc2sc(SSN3CC4CCC(CC4)C3)nc2c1 ?
No

Input CC1C(c2ccccc2)OCCN1C(=S)Nc1ccc(S(=O)(=O)N2CCCCC2)cc1 (stereo not drawn) ; condition: growth strictly below 90%. Does it hold?
Yes

---

Test system: SNB-19 CNS
testSummary: NCI-60 one-dose screen, 48 h (100 = growth as untreated, 0 = no growth, -100 = all killed)
measurementConditions: 10 µM unless noted
This is part of a sample that, as a whole, favours compounds with a hit. Of some 83,000 tested, about 20% had one in any assay.
measuredAttribute: growth (%)
Answers are plain numbers, in %.

Use these answered entries as a reference point.
O=C(c1ccccc1)N(CCCl)C(=O)N(CCCl)C(=O)c1ccccc1; 90.5
CCCCCCCCCCCC1N=C(N)N=C(N)N1c1cccc(Br)c1 (centres undefined); -93.6

Items follow; give growth for each.
1. CC(C)(C)c1ccc(CCO)cc1
2. Cc1cc(Br)c2nsnc2c1[N+](=O)[O-]
3. CC(C)=CCCC(C)C1=C(O)C(=O)C(C)=CC1=O (centres undefined)
4. S=C(S)OCN1CCOCC1
5. CN(C)c1ccc(/C=C/c2ccnc3ccccc23)cc1
6. NNc1cccc([N+](=O)[O-])c1
7. O=C(O)c1cccc2cccc(-c3c4ccc(=O)c(O)c-4oc4c(O)c(O)ccc34)c12

1: 95.7; 2: 52.9; 3: 98.7; 4: 103; 5: 51.7; 6: 107; 7: 98.1

---

Test system: UO-31 renal
testSummary: NCI-60 one-dose screen, 48 h
measurementConditions: 10 µM unless noted
This is part of a sample that, as a whole, favours compounds with a hit. Of some 83,000 tested, about 20% had one in any assay. Active and inactive are the calls of the source. How the source made its calls: active means growth percent below 10; inactive means the rest.
Classes to choose from: active, inactive

Please state the recorded outcome for this compound: COc1cc(OC)c(/C=C/c2c3ccccc3cc[n+]2C)c(OC)c1
inactive

Given Clc1ccc(-n2ncc3c(NCCCN4CCOCC4)ncnc32)cc1 , state the outcome it received in this test.
inactive

Recorded call for O=[N+]([O-])c1ccc(N2CCN(Cc3ccccc3)CC2)c2c1no[n+]2[O-] ?
active

Check the results log: what was the call for C=C(C(N)=O)C(N)C(=O)O (centres undefined) ?
inactive

Outcome? COc1ccc2c(c1OC)OCC(CN(C)C)C2=O (centres undefined)
active

# outcome recorded in this test, key = CC(=O)c1c(O)c(C)c(O)c2c1OC1=CC(=O)C(C(C)=O)C(=O)C12C (centres undefined)
inactive

Lab log entry: N#Cc1c2ccccc2nc2ccccc12 — outcome as called in the assay?
inactive

Please indicate how the test categorized CC(C)Nc1ccc(Nc2ccc(NC(C)C)cc2)cc1 .
inactive

I'd appreciate the recorded outcome for O=C1C=CC(O)=CC1=P(c1ccccc1)(c1ccccc1)c1ccccc1 from this test.
inactive

Tell me the assay call for CSc1nc(C)c(C(=O)CCN2CCN(c3ccccn3)CC2)s1 please.
inactive

What is the recorded call for this compound in the test? OC(CSc1ccccc1)CN1CCN(c2ccc(Cl)cc2)CC1 (centres undefined)
inactive

State the result this test recorded for CCC[CH2][Sn]1([CH2]CCC)[O]C2C(CO)OC(n3ccc(N)nc3=O)C2[O]1 (centres undefined) .
active

In this assay, the call recorded for Cc1cc(C(=C2C=CC(=Nc3ccccc3)C=C2)c2ccc(Nc3ccccc3)cc2)ccc1N was what?
active

Returns: the outcome recorded for O/N=C1\c2ccccc2-c2ccc(F)cc21 in this assay.
inactive

---

Test system: MDA-MB-231 breast
testSummary: NCI-60 one-dose screen, 48 h (100 = growth as untreated, 0 = no growth, -100 = all killed)
measurementConditions: 10 µM unless noted
This is part of a sample that, as a whole, favours compounds with a hit. Of some 83,000 tested, about 20% had one in any assay.
measuredAttribute: growth (%)
Give bare numbers, in %.

Here's what some known entries look like.
C(=N\Nc1ccc2ccccc2n1)/c1ccccn1; 30.5
CC(C)(C)c1ccc(O)c(-c2ccccc2)c1; 120
COc1cc(/C=C/C(=O)CC(=O)/C=C/c2ccc(O)c(OC)c2)ccc1O; 82.3
CCN(CC)CC(O)CNc1ccc(NCC2CO2)c2c1C(=O)c1ccccc1C2=O (centres undefined); -2.98
c1ccc2sc(SSN3CC4CCC(CC4)C3)nc2c1; 101

Below are some compounds; for each one, tell me its growth.
1. Clc1ccccc1C(c1ccccc1)(c1ccccc1)n1ccnc1
2. O=C1C=CC(=O)N1c1ccc(O)cc1

1. 59.1
2. 94.7

Report growth for each item below.
1. CC(C)=C1C=C2CC[C@@H]3[C@](C)(CCC[C@@]3(C)C(=O)O)[C@H]2CC1
2. CN(C)c1ccc(/C=C/c2sc3ccc4ccccc4c3[n+]2C)cc1

[99.6, -61.5]

---

Tested on: T-47D breast
testSummary: NCI-60 one-dose screen, 48 h
measurementConditions: 10 µM unless noted
Compounds without any hit were thinned out: in the full panel of roughly 83,000, 20% have a hit. Activity calls are given as the source filed them. Rule for the calls: active = growth percent below 10; inactive = the rest.
Your reply should match one of these outcome classes. 1.0 = active, 0.0 = inactive

Some solved cases for reference:
CN(C)c1ccc2cc3c(cc2c1)Oc1ccccc1N3.[Cl][Zn][Cl]; 1.0
O=C(c1ccccc1)N(CCCl)C(=O)N(CCCl)C(=O)c1ccccc1; 0.0
O=C(c1ccccc1)C(Br)C(Br)c1ccccc1 (stereo unspecified); 0.0
CC(C)c1ccc(C(=O)OC2CCCC2)cc1; 0.0
C/C(=N/NC(N)=S)c1ccc(C)cc1; 0.0

How was CCCOC(=O)c1nc(N(CC2CCCCC2)C(=O)NC)sc1/N=C/c1ccccc1 classified in this test?
0.0

---

Provide the recorded growth for the entries that follow.
Tested on: 786-0 renal
testSummary: NCI-60 one-dose screen, 48 h (100 = growth as untreated, 0 = no growth, -100 = all killed)
measurementConditions: 10 µM unless noted
Method: Cells are grown in 96 well plates and exposed to the test compound for 48 hours. Compounds are tested at a single concentration, which is 10^-5 M for most compounds. The reported endpoint is percent growth (GI% or GIPRCNT), where numbers from 0 - 100% represent growth inhibition, and numbers from -100% - 0 represent cell death. For example, a value of 40 represents 60% growth inhibition. A value of 0 means no net growth occurred over the course of the experiment. […]
This is part of a sample that, as a whole, favours compounds with a hit. Of some 83,000 tested, about 20% had one in any assay.
Numbers only, in %.

Oc1ccc(Cl)cc1C(c1cc(Cl)ccc1O)C(Cl)(Cl)Cl; 15.2
CCCCCCCCCCCCNCCCc1ccccc1; 69.4
O=C1c2ccccc2Cc2cccc(Cl)c21; 89.1
Oc1c(C(Nc2ccccc2)c2ccccc2)ccc2cccnc12 (stereo not given); 39.3
Oc1ccc(Nc2ccc3ccccc3c2)cc1; 46.7

Each of the following entries comes with a recorded value; kindly state growth for each.
1. CC(=O)OC1CC2CCC1(C)C2(C)C (stereo not given)
2. N#CCc1cccc2ccccc12
3. COc1cc(NC(=O)C2=C(C)NC(C)=C(C(=O)Nc3cc(OC)c(Cl)cc3OC)C2c2cccc([N+](=O)[O-])c2)c(OC)cc1Cl
4. CCOC(=O)NC(/C=C/c1ccccc1)NC(=O)OCC

[111, 109, 39, 103]

---

Tested on: HCT-116 colon
testSummary: NCI-60 one-dose screen, 48 h
measurementConditions: 10 µM unless noted
About 83,000 compounds went through this panel and 20% of them were active in at least one assay; those are over-represented in the sample as a whole. Active and inactive are the calls of the source. Rule for the calls: active = growth percent below 10; inactive = the rest.
Permitted responses: YES for active, NO for inactive

Check out these entries, answers already filled in.
Cc1ccc(NC2=CC(=O)C(=O)c3ccccc32)cc1; YES
O=C1C=CC(=O)c2c(O)c(CO)c(CO)c(O)c21; NO
c1ccc2sc(SSN3CC4CCC(CC4)C3)nc2c1; NO
O=C(c1ccccc1)C(Br)C(Br)c1ccccc1 (configuration not stated); YES

For NC(=S)N/N=C/c1ncccc1O , which call appears in the assay record?
YES

Called result for Oc1ccc(Br)cc1Sc1cc(Br)ccc1O
NO

How was Oc1ccc2ccccc2c1N=Nc1nccs1 classified in this test?
YES

Measured values drawn from PubChem BioAssay (NCI) for this set.
